Tested on: ATF4 luciferase reporter in HEK293T cells
Test: ATF4-Luc assay (in vitro model of VWMD)
Assay type: cell-based, human
Conditions: Homo sapiens, HEK-293T, 7 h, HEK293T cells carrying the ATF4 luciferase reporter, 1 μg/mL tunicamycin, One Glo luminescence
Quantity measured: EC50

The cases that follow already have their EC50 on record.
### Prompt Data request, read-out EC50, for O=C(NC12CC(c3ccc(OCCOC(F)(F)F)nc3)(C1)C2)[C@H]1C[C@@H](O)c2cc(Cl)c(F)cc2O1 [Compound 446]
### Response 10 to 50 nM

### Prompt Data request, read-out EC50, for O=C(CO[C@H]1C[C@@H](OC(F)(F)F)C1)NC12CC(NC(=O)[C@H]3C[C@@H](O)c4cc(Cl)c(Cl)cc4O3)(C1)C2 [Compound 494]
### Response < 10 nM

### Prompt Data request, read-out EC50, for O=C(CO[C@H]1C[C@@H](OC(F)(F)F)C1)NC12CCC(NC(=O)[C@H]3C[C@@H](O)c4cc(C(F)(F)F)ccc4O3)(CC1)C[C@@H]2O [Compound 460]
### Response < 10 nM

### Prompt Data request, read-out EC50, for O=C(COc1ccc(C(F)(F)F)c(F)c1)N[C@H]1CC[C@H](n2cc(C(=O)N3CC[C@H](OC(F)(F)F)C3)cn2)CC1 [Compound 614]
### Response < 10 nM

### Prompt Data request, read-out EC50, for O=C(NC12CC(n3cc(N4CCN(CC(F)(F)F)CC4=O)cn3)(C1)C2)[C@H]1C[C@@H](O)c2cc(Cl)ccc2O1 [Compound 383]
### Response < 10 nM

Further cases:
### Prompt Data request, read-out EC50, for O=C(NCc1ccc(C(F)(F)F)cn1)[C@H]1C[C@H]2O[C@@H]1CC2NC(=O)[C@H]1C[C@@H](O)c2cc(Cl)ccc2O1 (mixture of isomers) [Compound 313]
### Response 250 to 500 nM

### Prompt Data request, read-out EC50, for O=C(N[C@H]1CC[C@H](n2cc(OCCOC(F)(F)F)cn2)CC1)[C@H]1C[C@@H](O)c2cc(F)ccc2O1 [Compound 523]
### Response < 10 nM

### Prompt Data request, read-out EC50, for O=C(COc1ccc(Cl)c(F)c1)NC12CCC(n3cc(C(=O)N4CC[C@H](OC(F)(F)F)C4)cn3)(CC1)CC2 [Compound 624]
### Response < 10 nM

### Prompt Data request, read-out EC50, for O=C(NC12CC(c3ccc(C(=O)N4CC(COC(F)(F)F)C4)nc3)(C1)C2)[C@H]1C[C@@H](O)c2cc(Cl)ccc2O1 [Compound 537]
### Response < 10 nM

### Prompt Data request, read-out EC50, for O=C(NC12CC(c3cc(OCCCOC(F)(F)F)ncn3)(C1)C2)[C@H]1C[C@@H](O)c2cc(Cl)c(F)cc2O1 [Compound 649]
### Response < 10 nM

### Prompt Data request, read-out EC50, for O=C(COc1ccc(C(F)(F)F)cc1)NC12CC(n3cc(C(=O)N4CC[C@H](OC(F)(F)F)C4)cn3)(C1)C2 [Compound 604]
### Response < 10 nM

### Prompt Data request, read-out EC50, for O=C(NC12CC(c3ccc(-n4cnc(C(F)(F)F)c4)nc3)(C1)C2)[C@H]1C[C@@H](O)c2cc(Cl)ccc2O1 [Compound 559]
### Response 10 to 50 nM

### Prompt Data request, read-out EC50, for O=C(NC12CC(n3cc(OCCOC(F)(F)F)cn3)(C1)C2)[C@H]1C[C@@H](O)c2cc(C(F)(F)F)c(F)cc2O1 [Compound 483]
### Response < 10 nM

### Prompt Data request, read-out EC50, for O=C(N[C@H]1CC[C@H](n2cc(N3CC[C@@H](OC(F)(F)F)C3)cn2)CC1)[C@H]1C[C@@H](O)c2cc(Cl)ccc2O1 [Compound 581]
### Response 10 to 50 nM

Attribution: patent US20250145594A1
